# Tested on: RARb homodimer (NR concentration 270 nM)
# ASSAY COMMENT: PBM binding z-score (relative to random genomic background probes); higher = stronger binding; sequences stand for … in GC…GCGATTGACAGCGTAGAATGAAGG
// PBM binding z-score lookup, one value per entry
Lab note: record the figure alone, no unit after it.

For orientation, consider the following solved cases.
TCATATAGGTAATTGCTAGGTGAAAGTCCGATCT: 0.402
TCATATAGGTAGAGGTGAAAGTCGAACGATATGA: 1.04
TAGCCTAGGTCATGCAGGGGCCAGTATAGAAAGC: 3.35
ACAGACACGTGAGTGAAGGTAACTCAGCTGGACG: -0.372

Prompt: // lookup PBM binding z-score for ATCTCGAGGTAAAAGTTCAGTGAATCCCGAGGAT
Response: 2.35

Prompt: How about this sequence: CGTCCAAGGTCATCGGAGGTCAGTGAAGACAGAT
Response: 5.43

Prompt: How about this sequence: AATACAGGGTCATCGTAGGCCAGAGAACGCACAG
Response: 3.8
